Molecular target: T1, LIN7C, Q9NUP9
T1 sequence (Q9NUP9 88-185, limits assumed, looked up): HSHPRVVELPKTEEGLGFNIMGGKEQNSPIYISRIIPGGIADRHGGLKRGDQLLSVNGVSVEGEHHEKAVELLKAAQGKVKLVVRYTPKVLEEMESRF
Experiment: holdup assay
Parameters: key: below the threshold = too weak to quantify, mostly under pKd 3.1 to 4
Details: plain residues with an end cap or a label only (N-terminal biotin on a linker: ado-ado)
measured metric: pKd
Returns: the value as a bare number; no unit string appended.

IN: Can you look up the measured pKd of TKDKVQETQI [LRRC4, Q9HBW1] for me?
OUT: 3.98

IN: What does the data say about its pKd? Entry: SAGADSETHC [SLCO1B1, Q9Y6L6]
OUT: 3.93

Hello, the source for this data is paper PMC9482650, in case you need it.
